ASSAY_SYSTEM: hM1 (Homo sapiens, UniProt P11229)
Construct: expressed in transfected cells; host or cells: CHO
Sequence (P11229 whole entry): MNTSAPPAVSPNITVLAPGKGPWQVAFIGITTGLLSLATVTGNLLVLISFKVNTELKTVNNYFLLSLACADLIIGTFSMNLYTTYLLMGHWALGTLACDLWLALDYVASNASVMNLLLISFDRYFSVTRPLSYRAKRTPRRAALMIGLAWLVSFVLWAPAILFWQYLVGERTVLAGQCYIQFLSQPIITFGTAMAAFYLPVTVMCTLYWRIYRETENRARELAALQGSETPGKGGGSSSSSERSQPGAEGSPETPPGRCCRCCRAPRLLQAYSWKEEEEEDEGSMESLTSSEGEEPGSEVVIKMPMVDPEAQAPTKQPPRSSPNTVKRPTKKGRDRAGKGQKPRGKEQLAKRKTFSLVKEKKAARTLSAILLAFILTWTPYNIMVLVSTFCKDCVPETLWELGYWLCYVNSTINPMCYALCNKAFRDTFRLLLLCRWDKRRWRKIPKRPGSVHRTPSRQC
PROTOCOL_DETAILS: FLIPR intracellular calcium assay for modulator activity at the muscarinic M1 receptor in CHO human M1 cells
Format: cell-based
Mark each entry Yes if its IC50 sits below 500 nM, and No for all others.

Ask: Given the entry `CC(C)C[C@@H]1N=C(c2ccccc2)c2cc(Cl)ccc2NC1=S` , would its reported IC50 be below 500 nM?
Reply: Yes

Ask: I wonder whether S=C1Nc2ccc(Cl)cc2C(c2ccccc2)=N[C@H]1Cc1ccccc1 (single isomer, unassigned) has IC50 below 500 nM. Can you tell?
Reply: Yes

Ask: Say whether its IC50 is strictly beneath 500 nM. Entry: CC1N=C(c2ccccc2)c2ccccc2NC1=S (stereo not drawn)
Reply: No

Ask: Does this molecule meet the criterion IC50 < 500 nM? CCC1CN(c2ccccc2)c2cc(Cl)ccc2NC1=S (stereo not drawn)
Reply: Yes

Ask: IC50 under 500 nM? Item: `CC(C)C[C@@H]1N=C(c2ccccc2F)c2cc(Cl)ccc2NC1=S`
Reply: No

Ask: Decide: IC50 of `Fc1ccccc1C1=N[C@H](C(F)(F)F)C(=S)Nc2ccc(Cl)cc21` strictly below 500 nM?
Reply: No

Ask: Is 500 nM strictly greater than the molecule's reported IC50? molecule: CC(C)C1N=C(c2ccccc2)c2cc(Cl)ccc2NC1=S (stereo not drawn)
Reply: Yes

Ask: Quick check: does `CC(C)[C@@H]1N=C(c2ccccc2)c2cc(C(F)(F)F)ccc2NC1=S` have IC50 under 500 nM?
Reply: Yes

* * *

ASSAY_SYSTEM: hM1 (Homo sapiens, UniProt P11229)
Construct: expressed in transfected cells; host or cells: CHO
PROTOCOL_DETAILS: FLIPR intracellular calcium assay for modulator activity at the muscarinic M1 receptor in CHO human M1 cells
Assay type: cell-based
So I've got a bunch of compounds here, and I need their pIC50 values.
Give bare numbers, as −log10 of the molar value.

Consider the worked cases shown below.
CC(C)[C@@H]1N=C(c2cccc(Cl)c2)c2cc(Cl)ccc2NC1=S [Example 22]: 6.76
COc1ccc2c(c1)C(c1ccccc1)=N[C@@H](C(C)C)C(=S)N2 [Example 40]: 6.25

Report pIC50 for every entry below.
1. CC(C)[C@@H]1N=C(c2ccccc2)c2cc(Cl)ccc2NC1=S [Example 16]
2. CC(C)[C@H]1N=C(c2ccccc2)c2cc(Cl)ccc2NC1=S [Example 35]
3. CCC[C@@H]1N=C(c2ccccc2)c2cc(Cl)ccc2NC1=S [Example 7]
4. CC(C)[C@@H]1N=C(c2ccccn2)c2cc(Br)ccc2NC1=S [Example 2]

Reply:
[7.15, 6.28, 6.73, 6.54]

* * *

ASSAY_SYSTEM: hM1 (Homo sapiens)
Construct: expressed in transfected cells; host or cells: CHO
PROTOCOL_DETAILS: FLIPR intracellular calcium assay for modulator activity at the muscarinic M1 receptor in CHO human M1 cells
Assay type: cell-based
pIC50: −log10 of the molar value.
Please use YES whenever pIC50 is not below 6, and NO whenever it is.

FC(F)(F)c1ccc2c(c1)C(C1CCCCC1)=NCC(=S)N2 [Example 20]: NO
CC(C)[C@@H]1N=C(c2ccccc2F)c2cc(Cl)ccc2NC1=S [Example 5]: YES
CCC1N=C(c2ccccc2F)c2cc(N)ccc2NC1=S (centres unmarked) [Example 37]: NO
CC(C)[C@H]1N=C(c2ccccc2F)c2cc(Cl)ccc2NC1=S [Example 34]: YES
CCC[C@]1(C)N=C(c2ccccc2)c2cc(Cl)ccc2NC1=S [Example 6]: YES

Ask: Textbook exercise: given the entry Fc1ccccc1C1=N[C@@H](C(F)(F)F)C(=S)Nc2ccc(Cl)cc21 [Example 10] , state whether its pIC50 is greater than or equal to 6.
Reply: YES

Ask: Please check the record CC(C)(O)C1N=C(c2ccccc2)c2cc(Cl)ccc2NC1=S (centres unmarked) [Example 26] and state if its pIC50 is at or above 6.
Reply: NO
